Experiment notes: PK of compound of Formula (Ia) after single subcutaneous dose of solution formulations in Wistar Han rats
Format: in vivo
Test conditions: male, Wistar Han, rat, plasma, sc, 50 mg/kg, mean ± SD, n = 5 rats; SC 50 mg/kg; solution T, 400 mg/mL; read-out: AUC0-2352 h
Metric name: AUC(0-t) (µM·h)
One number for each entry, in µM·h.

Find the recorded AUC(0-t) belonging to CC(C)(C#Cc1ccc(-c2ccc(Cl)c3c(NS(C)(=O)=O)nn(CC(F)(F)F)c23)c([C@H](Cc2cc(F)cc(F)c2)NC(=O)Cn2nc(C(F)(F)F)c3c2C(F)(F)[C@@H]2C[C@H]32)n1)S(C)(=O)=O and report it.
581

###

Experiment notes: PK of compound of Formula (Ia) after single subcutaneous dose of solution formulations in beagle dogs
Type: in vivo
Test conditions: male, beagle, dog, plasma, sc, 12 mg/kg, beagle dogs, SC 12 mg/kg, 400 mg/mL solution Z (3.13% poloxamer 188), 672 h, animals #1-#3
Metric name: concentration at 672 h (nM)
Answers are plain numbers, in nM.

I would be grateful if you could share the reported concentration at 672 h for CC(C)(C#Cc1ccc(-c2ccc(Cl)c3c(NS(C)(=O)=O)nn(CC(F)(F)F)c23)c([C@H](Cc2cc(F)cc(F)c2)NC(=O)Cn2nc(C(F)(F)F)c3c2C(F)(F)[C@@H]2C[C@H]32)n1)S(C)(=O)=O [compound of Formula (Ia)] .
144

###

Experiment notes: PK of compound of Formula (Ia) after single subcutaneous dose of solution formulations in Wistar Han rats
Type: in vivo
Test conditions: male, Wistar Han, rat, plasma, sc, 50 mg/kg, Wistar Han rats, SC 50 mg/kg, 400 mg/mL solution AA (6.25% poloxamer 188), 2016 h, Mean n = 4
Metric name: concentration at 2016 h (nM)
Numbers only, in nM.

Given the entry CC(C)(C#Cc1ccc(-c2ccc(Cl)c3c(NS(C)(=O)=O)nn(CC(F)(F)F)c23)c([C@H](Cc2cc(F)cc(F)c2)NC(=O)Cn2nc(C(F)(F)F)c3c2C(F)(F)[C@@H]2C[C@H]32)n1)S(C)(=O)=O [compound of Formula (Ia)] , report its measured concentration at 2016 h.
78.2

###

Experiment notes: PK of compound of Formula (Ia) after single intramuscular dose of solution formulations in Wistar Han rats
Assay type: in vivo
Test conditions: male, Wistar Han, rat, plasma, intramuscular, 100 mg/kg, Solution K (~500 mg/mL, ethanol); IM 100 mg/kg; Wistar Han rats; individual animals #1-#4; 24.0 h; read-out: Plasma concentration
Metric name: concentration at 24 h
Express the reported value numerically, then name its unit.

Record request: concentration at 24 h value, item CC(C)(C#Cc1ccc(-c2ccc(Cl)c3c(NS(C)(=O)=O)nn(CC(F)(F)F)c23)c([C@H](Cc2cc(F)cc(F)c2)NC(=O)Cn2nc(C(F)(F)F)c3c2C(F)(F)[C@@H]2C[C@H]32)n1)S(C)(=O)=O
438 nM

###

Experiment notes: PK of compound of Formula (Ia) after single subcutaneous dose of solution formulations in Wistar Han rats
Type: in vivo
Test conditions: male, Wistar Han, rat, plasma, sc, 50 mg/kg, Wistar Han rats, SC 50 mg/kg, 400 mg/mL solution Z (3.13% poloxamer 188), 24.0 h, Mean n = 4
Metric name: concentration at 24 h (nM)
Numbers only, in nM.

I am curious: what concentration at 24 h value has been reported for CC(C)(C#Cc1ccc(-c2ccc(Cl)c3c(NS(C)(=O)=O)nn(CC(F)(F)F)c23)c([C@H](Cc2cc(F)cc(F)c2)NC(=O)Cn2nc(C(F)(F)F)c3c2C(F)(F)[C@@H]2C[C@H]32)n1)S(C)(=O)=O ?
144

###

Experiment notes: PK of compound of Formula (Ia) after single subcutaneous dose of solution formulations in Wistar Han rats
Type: in vivo
Test conditions: male, Wistar Han, rat, plasma, sc, 50 mg/kg, 8064 h; mean, n = 3 rats; SC 50 mg/kg; solution S, 500 mg/mL
Description: Formulations containing the compound of Formula (Ia), or a pharmaceutically acceptable salt thereof, were prepared as solutions and optionally administered subcutaneously or intramuscularly to rats, rabbits, and/or dogs. A solution of about 400 mg/mL of the compound of Formula (Ia) having 19.14 w/w % water, 40.66 w/w % PEG 300, 35.20 w/w % of a sodium salt of a compound of Formula (Ia), and 5.00% ethanol was prepared. […]
Metric name: concentration at 8064 h (nM)
One number for each entry, in nM.

Look up concentration at 8064 h: CC(C)(C#Cc1ccc(-c2ccc(Cl)c3c(NS(C)(=O)=O)nn(CC(F)(F)F)c23)c([C@H](Cc2cc(F)cc(F)c2)NC(=O)Cn2nc(C(F)(F)F)c3c2C(F)(F)[C@@H]2C[C@H]32)n1)S(C)(=O)=O [compound of Formula (Ia)]
24.8

###

Experiment notes: PK of compound of Formula (Ia) after single subcutaneous dose of solution formulations in Wistar Han rats
Type: in vivo
Test conditions: male, Wistar Han, rat, plasma, sc, 50 mg/kg, 1680 h; mean, n = 3 rats; SC 50 mg/kg; solution V, 300 mg/mL
Metric name: concentration at 1680 h (nM)
One number for each entry, in nM.

Please report the recorded concentration at 1680 h for CC(C)(C#Cc1ccc(-c2ccc(Cl)c3c(NS(C)(=O)=O)nn(CC(F)(F)F)c23)c([C@H](Cc2cc(F)cc(F)c2)NC(=O)Cn2nc(C(F)(F)F)c3c2C(F)(F)[C@@H]2C[C@H]32)n1)S(C)(=O)=O .
250

###

Experiment notes: PK of compound of Formula (Ia) after single subcutaneous dose of solution formulations in Wistar Han rats
Format: in vivo
Test conditions: male, Wistar Han, rat, plasma, sc, 50 mg/kg, Wistar Han rats, SC 50 mg/kg, 400 mg/mL solution Y (water, PEG 300), 3024 h, Mean n = 4
Metric name: concentration at 3024 h

// query concentration at 3024 h value for entry CC(C)(C#Cc1ccc(-c2ccc(Cl)c3c(NS(C)(=O)=O)nn(CC(F)(F)F)c23)c([C@H](Cc2cc(F)cc(F)c2)NC(=O)Cn2nc(C(F)(F)F)c3c2C(F)(F)[C@@H]2C[C@H]32)n1)S(C)(=O)=O [compound of Formula (Ia)]
105 nM

###

Experiment notes: PK of compound of Formula (Ia) after single subcutaneous dose of solution formulations in beagle dogs
Type: in vivo
Test conditions: male, beagle, dog, plasma, sc, 12 mg/kg, beagle dogs, SC 12 mg/kg, 500 mg/mL solution X (5.00% ethanol, 1.91% poloxamer 188), 1344 h, Mean n = 3
Metric name: concentration at 1344 h

# query: concentration at 1344 h of entry CC(C)(C#Cc1ccc(-c2ccc(Cl)c3c(NS(C)(=O)=O)nn(CC(F)(F)F)c23)c([C@H](Cc2cc(F)cc(F)c2)NC(=O)Cn2nc(C(F)(F)F)c3c2C(F)(F)[C@@H]2C[C@H]32)n1)S(C)(=O)=O
48.5 nM

###

Experiment notes: PK of compound of Formula (Ia) after single subcutaneous dose of solution formulations in beagle dogs
Type: in vivo
Test conditions: male, beagle, dog, plasma, sc, 12 mg/kg, mean ± SD, n = 3 dogs; SC 12 mg/kg; solution T, 400 mg/mL
Description: Formulations containing the compound of Formula (Ia), or a pharmaceutically acceptable salt thereof, were prepared as solutions and optionally administered subcutaneously or intramuscularly to rats, rabbits, and/or dogs. A solution of about 400 mg/mL of the compound of Formula (Ia) having 17.00 w/w % water, 36.40 w/w % PEG 300, 35.20 w/w % of a sodium salt of a compound of Formula (Ia), 5.00 w/w % ethanol, and 6.40 w/w % poloxamer 188 was prepared. […]
Metric name: Tmax (days)
Give bare numbers, in days.

Look at this compound and give its reported Tmax. CC(C)(C#Cc1ccc(-c2ccc(Cl)c3c(NS(C)(=O)=O)nn(CC(F)(F)F)c23)c([C@H](Cc2cc(F)cc(F)c2)NC(=O)Cn2nc(C(F)(F)F)c3c2C(F)(F)[C@@H]2C[C@H]32)n1)S(C)(=O)=O
13

###

Experiment notes: PK of compound of Formula (Ia) after single subcutaneous dose of solution formulations in Wistar Han rats
Assay type: in vivo
Test conditions: male, Wistar Han, rat, plasma, sc, 50 mg/kg, Wistar Han rats, SC 50 mg/kg, 500 mg/mL solution X (5.00% ethanol, 1.91% poloxamer 188), 3360 h, animals #1-#3
Metric name: concentration at 3360 h (nM)
Numbers only, in nM.

Recorded concentration at 3360 h for CC(C)(C#Cc1ccc(-c2ccc(Cl)c3c(NS(C)(=O)=O)nn(CC(F)(F)F)c23)c([C@H](Cc2cc(F)cc(F)c2)NC(=O)Cn2nc(C(F)(F)F)c3c2C(F)(F)[C@@H]2C[C@H]32)n1)S(C)(=O)=O , please?
122
